Test system: RARb:RXRa (NR concentration 270 nM, RXRa partner concentration 90 nM)
Protocol: PBM binding z-score (relative to random genomic background probes); higher = stronger binding; sequences stand for … in GC…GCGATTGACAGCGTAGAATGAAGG
Group membership follows PBM binding z-score per the scheme class 0 = under 2, class 1 = from 2 up to 4, class 2 = 4 and over

Consider the following illustrative entries.
                       chain_sequence  assigned_class
0  ATATGTAGGTTATCGGGTCATGCAGTTTGCGCAT         class 1
1  CCGACTGGGGCAAGGTGACCATAACGCACAGCCA         class 0
2  CCTAGCAGGCCAGAGTCACTCAAGCATTTCGCTT         class 0
3  TATACAGGGTCAAAAGCCAGAGTACGAATGTCGA         class 1
4  TCTGCTAGGTCAGTTGGTCATCTAACGAGCTGCC         class 1

Inquiry: Note: place this sequence into its band. Item: ACAGATAGGTGAGTGAAGGTAACTCAGCTGGACG
Reply text: class 0

Inquiry: Note: place this sequence into its band. Item: TGTCAAAGTTCAAAGGGAACGTAAGTATCCACAC
Reply text: class 2

Inquiry: Note: place this sequence into its band. Item: CCTAGCAGGCCAGGGTCACTCATGCATTTCGCTT
Reply text: class 1

Inquiry: Note: place this sequence into its band. Item: ATCGAAAGGCCGAGGTGAGTATAGAGAAAGGGAA
Reply text: class 0

Inquiry: Note: place this sequence into its band. Item: CAAACTAGGTCAAGGTCAATGTCGGTTTGTGCCA
Reply text: class 2

###

System: PXR homodimer (NR concentration 270 nM)
Protocol: PBM binding z-score (relative to random genomic background probes); higher = stronger binding; sequences stand for … in GC…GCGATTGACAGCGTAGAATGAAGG
Group membership follows PBM binding z-score per the scheme group 1: < -0.1; group 2: ≥ -0.1 and < 0.7; group 3: ≥ 0.7

Consider the following illustrative entries.
                       chain_sequence  assigned_class
0  CCTCGGAGGACAGAAGGTCAGGGCTGTCCGCTTT         group 1
1  ACTTACGGGTCAACCAGGTTATAGCACGCGTATA         group 3
2  CAAACTAGGTCAAGAGGTCATAGTCCGCTTCCCG         group 3
3  AGAATGAGCTTATTAAGATCAGGGAATTGCGGTC         group 1
4  ACTGACAGGTGATGAAGGTAACTCAGGCTATCAT         group 1
5  TAGCCTAGGTTAGATCGGGCCAGTATACGCTATA         group 1
6  ACAGACAGGTGAGTGAAGGTAACTCAGCTGGACG         group 1
7  GTACCAAGGCGAATAGGTCGTTGATGAGTAGGCG         group 2

Inquiry: Note: place this sequence into its band. Item: TCATATAGCTAAATGCTAGGTGAAAGTCCGATCT
Reply text: group 1

Inquiry: Note: place this sequence into its band. Item: ACTAGCAGGCCAAGTTCGGGTCACTCAAACAAAG
Reply text: group 2

Inquiry: Note: place this sequence into its band. Item: AATACAGCGTCATCGTAGGCCAGAGTACGCACAG
Reply text: group 1

Inquiry: Note: place this sequence into its band. Item: GCGACTGGGGCATCAGCAGGTTACCACAACTTAA
Reply text: group 1

Inquiry: Note: place this sequence into its band. Item: ACTTCCGGGTCAACGAGGTTATAGCACGCGTATA
Reply text: group 3

###

Test system: VDR homodimer (NR concentration 270 nM)
Protocol: PBM binding z-score (relative to random genomic background probes); higher = stronger binding; sequences stand for … in GC…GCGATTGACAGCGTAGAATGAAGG
Rule: PBM binding z-score under 3 gives rule not met, otherwise rule met.

Inquiry: Reported PBM binding z-score at or above 3? TAGCCTAGGTCATTGGCCCAGTATAGTACGCATC
Reply text: rule not met

Inquiry: Reported PBM binding z-score at or above 3? ATCTCTAGGTAAAGTTCAGTGAGAGATCGATAGA
Reply text: rule not met

Inquiry: Reported PBM binding z-score at or above 3? TCAAGTAGGTTAGTCGGGGCATTCAGCCAACATA
Reply text: rule not met

Inquiry: Reported PBM binding z-score at or above 3? GCGACTGGGGCTAAGCAGGTTACCATAAGGTTGG
Reply text: rule not met

Inquiry: Reported PBM binding z-score at or above 3? CCTCGGAGGACAACAGGAGGTCACAGCTGCCAGA
Reply text: rule not met

###

Tested on: PPARg:RXRa (NR concentration 180 nM, RXRa partner concentration 90 nM)
Protocol: PBM binding z-score (relative to random genomic background probes); higher = stronger binding; sequences stand for … in GC…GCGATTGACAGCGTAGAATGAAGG
Endpoint name: PBM binding z-score
Form: value (number only, do not type unit).

>>> print(df.to_string())
                       chain_sequence  quantitative_readout
0  CCTGCTAGGTCATGGCCAGCTAATCTACAGTATG                   2.7
1  CCTTATGGGTCAAGGTTATAGCACGGGTGGTACG                  5.35
2  CTCGAAAGGTCGGGCTCAGGTGAGTATACCAAAC                 0.671
3  TTACCAACGTGAAGGTCGTTGATCCCTCTGTAGA               0.00743
4  CCGACTGGTGCAAAGGTTACCATACTCAGTACGA                  6.69

For reference, reported PBM binding z-score for ACAGACAGGTGATGAAGGTAACTCTGGCTATCAT stands at 0.485

For reference, reported PBM binding z-score for CGAACTAGGACAAGGACAGTGAATCTCCGCACGC stands at 1.22

For reference, reported PBM binding z-score for CCTACTGTGCCACGAAAGGTCATTGATTCAGTGA stands at 3.72

For reference, reported PBM binding z-score for ATCTCTAGGTAACCAGGTTCAGTGAATGCCGAAC stands at 0.883

For reference, reported PBM binding z-score for CCGACTGGGGCACAGGTTACCATACTCAGTACGA stands at 6.11

For reference, reported PBM binding z-score for CTACCAAGGTGACCAAGGTCGTTGATTACTATTC stands at 0.763

###

Tested on: LXRb homodimer (NR concentration 270 nM)
Protocol: PBM binding z-score (relative to random genomic background probes); higher = stronger binding; sequences stand for … in GC…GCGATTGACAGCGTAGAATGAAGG
Rule: PBM binding z-score under -0.09 gives Criterion not met, otherwise Criterion met.

Inquiry: Reported PBM binding z-score at or above -0.09? TCATATAGGTAAAACGTGAAAGTCGGTGTGGTAA
Reply text: Criterion met

Inquiry: Reported PBM binding z-score at or above -0.09? TATACAGGGTCAAGGGCCAGAGTACGAATGTCGA
Reply text: Criterion met

Inquiry: Reported PBM binding z-score at or above -0.09? TCTGCTCGGTCAGTTGGTCAGCTAACGAGCTGCC
Reply text: Criterion met

Inquiry: Reported PBM binding z-score at or above -0.09? GCTAGCAGGCCATTTGGGTCACTCAGTGACGGGC
Reply text: Criterion not met

Inquiry: Reported PBM binding z-score at or above -0.09? CTACCAAAGTGAACAAGGTCGTTGATTACTATTC
Reply text: Criterion met

Inquiry: Reported PBM binding z-score at or above -0.09? TAGCCTAGGTCAGTGGGCCAGTATAGTACGCATC
Reply text: Criterion not met

###

Tested on: PPARg homodimer (NR concentration 180 nM)
Protocol: PBM binding z-score (relative to random genomic background probes); higher = stronger binding; sequences stand for … in GC…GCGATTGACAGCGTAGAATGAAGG
Endpoint name: PBM binding z-score
Form: value (number only, do not type unit).

Examples with answers:
In [3]: df
Out[3]:
                       chain_sequence        endpoint_name  quantitative_readout
0  TCAGACAGGTGAAGGTAACTCAAGTACGCAGTCG  PBM binding z-score                 0.845
1  ACAGACAGGTGAGTAAAGGTAACTCAGCTGGACG  PBM binding z-score                -0.162
2  CCTTACGGGTCAATGTTATAGCACGGGTGGTACG  PBM binding z-score                   1.3

For reference, reported PBM binding z-score for CGTCCAAGGTCATAGGAGGACAGTGAAGACAGAT stands at 3.01

For reference, reported PBM binding z-score for TCTTCTAGATCAACAGGAGGTTAAGAAAGATCGA stands at 0.382

For reference, reported PBM binding z-score for ATCGAAAAGTCGACGAGGTGAGTATACACCGTTT stands at -0.218

For reference, reported PBM binding z-score for CCTACTGGGCCAAAAAGGTCAATGATGCCGATAA stands at 2.6

For reference, reported PBM binding z-score for CCGACTGGGGCAAAGGTTATCATACTCAGTACGA stands at 2.13

For reference, reported PBM binding z-score for TCATATAGGTAAACAGGTGAAAGACCGTAAGTTA stands at 1.16

For reference, reported PBM binding z-score for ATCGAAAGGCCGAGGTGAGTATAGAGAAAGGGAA stands at 0.14

For reference, reported PBM binding z-score for ATATGTAGGTTGAGGGTCATTCAGGTTGGTTCGC stands at 3.16

For reference, reported PBM binding z-score for GCTCGGAGTACAAGGTCAGAGCTTTGTCCGTAGA stands at 1.73
